All values here come from patent US20240190936A1.

Could you please report measured cAMP EC50, in the presence of 0.1% casein for the items listed next?
target: human GLP-1 receptor (human, UniProt P43220 24-463); assay: cell-based or functional assay
Give bare numbers, in pM.

Return reported cAMP EC50, in the presence of 0.1% casein values for all items listed beneath this line.
1. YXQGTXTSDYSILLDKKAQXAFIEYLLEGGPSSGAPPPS (Aib at 2; αMeF(2F) at 6; K17 conjugated at the epsilon-amino group with (2-[2-(2-amino-ethoxy)-ethoxy]-acetyl)-(γGlu)-CO-(CH2)18-CO2H; Aib at 20; C-terminal amide, Synthetic acylated peptide) [Example 4]
2. YXQGTXTSDYSIXLDKKAQXAFIEYLLEGGPSSGAPPPS (Aib at 2; αMeF at 6; αMeL at 13; K17 conjugated at the epsilon-amino group with (2-[2-(2-amino-ethoxy)-ethoxy]-acetyl)2-(γGlu)-CO-(CH2)18-CO2H; Aib at 20; C-terminal amide, Synthetic acylated peptide) [Example 2]
3. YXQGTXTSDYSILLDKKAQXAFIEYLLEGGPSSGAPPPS (Aib at 2; αMeF at 6; K17 conjugated at the epsilon-amino group with (2-[2-(2-amino-ethoxy)-ethoxy]-acetyl)2-(γGlu)-CO-(CH2)18-CO2H; Aib at 20; C-terminal amide, Synthetic acylated peptide) [Example 1]
4. YXHGTXTSDYSILLDKKAQXAFIEYLLEGGPSSGAPPPS (Aib at 2; αMeF(2F) at 6; K17 conjugated at the epsilon-amino group with (2-[2-(2-amino-ethoxy)-ethoxy]-acetyl)2-(γGlu)-CO-(CH2)18-CO2H; Aib at 20; C-terminal amide, Synthetic acylated peptide) [Example 3]

Reply text:
145
106
112
104
